Just for reference, paper PMC6874763 is where these values come from.

tested on: NIH/3T3 cells; assay: Sulforhodamine B; assay type: cell-based; details: read-out: IC50 cytotoxicity against NIH/3T3 cells; 4 day compound exposure
// values below are reported IC50
Kindly provide the numeric value in nM only, without the unit symbol.

[
  {
    "input.smiles": "COc1ccc([C@@]23Oc4cc(OC)cc(OC)c4[C@@]24NC(C)=NC4=C(C=O)[C@H]3c2ccccc2)cc1",
    "observation.type": "IC50",
    "unit.annotation": "nM",
    "experimental.result": 454
  }
]

From here, focus on the item given below.
Lab book: IC50 of `COC(=O)[C@@H]1[C@@H](c2ccccc2)[C@]2(c3ccc(OC)cc3)Oc3cc(OC)cc(OC)c3[C@@]23N=C(C)N[C@@]13O` noted as 10

* * *

molecular target: eIF4A1 (Homo sapiens, UniProt P60842); test: Fluorescence polarization; assay type: binding; conditions: 10 µM rocaglate, >200 rocaglates of BU-CMD collection
Sequence (P60842 whole entry, species assumed): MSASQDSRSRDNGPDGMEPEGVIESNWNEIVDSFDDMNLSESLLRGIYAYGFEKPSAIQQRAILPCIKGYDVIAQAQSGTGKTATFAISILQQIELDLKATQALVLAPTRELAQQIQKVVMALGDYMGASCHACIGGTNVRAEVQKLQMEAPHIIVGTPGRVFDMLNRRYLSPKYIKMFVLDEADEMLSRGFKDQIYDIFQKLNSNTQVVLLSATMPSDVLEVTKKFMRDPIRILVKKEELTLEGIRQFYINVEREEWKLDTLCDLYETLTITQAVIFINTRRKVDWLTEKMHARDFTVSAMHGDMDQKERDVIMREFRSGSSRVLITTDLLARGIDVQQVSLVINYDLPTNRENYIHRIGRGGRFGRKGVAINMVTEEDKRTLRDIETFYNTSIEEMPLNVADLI
observation.type: rank in screen for enhancing eIF4A1:poly r(AG)8 RNA binding

[
  {
    "compound": "CONC(=O)[C@H]1[C@@H](O)[C@@]2(O)c3c(OC)cc(OC)cc3O[C@@]2(c2ccc(Br)cc2)[C@@H]1c1ccccc1 [SDS-1–0-21]",
    "experimental.result": "ranked highly"
  },
  {
    "compound": "COC(=O)[C@@H]1[C@@H](c2ccccc2)[C@]2(c3ccc(OC)cc3)Oc3cc(OC)cc(OC)c3[C@@]23N=C(C2CC2)N[C@@]13O [CMLD012072]",
    "experimental.result": "Among the most potent"
  },
  {
    "compound": "CONC(=O)[C@H]1[C@@H](O)[C@@]2(O)c3c(OC)cc(OC)cc3O[C@@]2(c2ccc(OC)cc2)[C@@H]1c1ccccc1 [CR-1–31-B]",
    "experimental.result": "ranked highly"
  },
  {
    "compound": "COC(=O)[C@@H]1[C@@H](c2ccccc2)[C@]2(c3ccc(OC)cc3)Oc3cc(OC)cc(OC)c3[C@@]23N=C(C)N[C@@]13O [CMLD012073]",
    "experimental.result": "Among the most potent"
  }
]
